Assay: COS7 lysate on small-molecule microarray, probe aHis, 635 nm (AID 1123);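 also: z-score combines 667nm fluorescence intensity with signal-to-noise per printed compound spot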
Conditions: COS7 cell lysate, fluorescence, higher = more signal
Assign rule met to entries whose composite z-score meets or exceeds 0.8; assign rule not met to the rest.

Check this compound for composite z-score at or above 0.8: COc1ccc(O[C@H]2C=C[C@@H](c3ccccc3)O[C@@H]2COC(=O)CCC(C)=NOC(C)CN2CCCCc3nc(C)c(C)cc32)cc1 (stereo partly drawn) rule not met

// same read-out, input: COC(=O)C1(C)C=C2C(=C(c3ccccc3)C(=O)C2C)CN1 (stereo not drawn) rule met

Now consider CC(C)(C)N1CC=CC23O[C@@H]4C=CCCOC(=O)C4[C@H]2C(=O)N(CCCCCO)[C@@H]3C1=O (stereo partly drawn) . rule not met

`COC(=O)c1c(CC[C@@H](CO)NC(=O)N[C@H](Cc2ccccc2)Cn2cc(-c3ccccc3N)nn2)oc(C(C)=O)c1C(=O)OC` ? rule met

Now this one: `COC(=O)[C@@]1(Cc2ccc(OC)cc2)[C@H]2c3cc(C(=O)N4CCCC4)n(Cc4cc(F)c(F)c(F)c4)c3C[C@H]2CN1C(=O)c1ccccc1` rule met

Next up: `CC(=O)OC[C@H]1O[C@H](CCON=C(C)CCN2CCc3nc(-c4ccccc4)c(-c4ccccc4)cc3C2)C=C[C@@H]1OC(C)=O` rule not met

Same for c1ccc(C2NCCc3c2[nH]c2ccccc32)cc1 (stereo not drawn) rule not met

CCN(CC)c1ccc(N2CC=CC34O[C@@H]5/C=C\CCC(C)OC(=O)C5[C@H]3C(=O)N(CCCO)[C@@H]4C2=O)cc1 (stereo partly drawn) ? rule not met

* * *

Test: E. coli DRC41 culture turbidity changes, primary screen, E. coli filamentation inducer project, strain DRC41, OD650, 48 h (AID 1152);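 also: E. coli MC1000 strain DRC41 lacking acrAB efflux pump and sulA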
Details: E. coli DRC41 (acrAB sulA), higher = more signal, called active from +8 up or from −8 down
Measure: z-score
Answer with a number only.

Which z-score reading was recorded for the compound CC1(C)OCC(C(O)C2=CCCCC2=O)CO1 (stereo not drawn) ? -3.47

Now the compound `CCOC(=O)CCN1C(=O)[C@H]2[C@H]3[C@H](O)[C@H](O)CC(=NOC[C@@H](O)COCc4ccco4)[C@H]3CC[C@H]2C1=O` -0.923

Could you do the same for `COc1ccc(O[C@H]2C=C[C@@H](c3ccccc3)O[C@@H]2COC(=O)CCC(C)=NOC[C@@H](C)[C@H](OCc2ccccc2)C(C)C)cc1` , please? -0.72

Cool, now CC(CCN1CCCCc2nc(C)c(C)cc21)=NOC(C)CN1CCCc2nc(C)c(C)cc21 (stereo not drawn) -1.7

Check `CCCC[C@H]1OB(O)C[C@H]2C1=C(C)C[C@H]1C(=O)N(C)C(=O)[C@H]12` too. -0.908

Try `CC(=O)OC[C@H]1O[C@H](CC=NOC[C@@H](C)[C@H](OCc2ccccc2)C(C)C)C=C[C@@H]1OC(C)=O` next. -0.0083

Follow-up entry: `C=C(/C(=C/C[C@H](OC(=O)c1ccncc1)c1ccc(OCCO)cc1)c1cnc2ccccc2c1)C(C)C` -0.592

What do we get for `CO[C@@H]1COC(=O)CCC[C@@H](C)[C@H](OC)COC(=O)[C@H](Cc2ccccc2)NC(=O)CC=C[C@H]1C` ? 0.585

Now give it for `COc1ccc([Si](C)(C)[C@H]2[C@H](CC(=O)N3CCC[C@H]3CO)O[C@@]3(C(=O)N(Cc4cccc(N5C(=O)COc6ccccc65)c4)c4ccccc43)[C@@H]2C)cc1` too. 1.62

Field entry: `CCc1cc2c(nc1CC)CCN(CCC(C)=NO[C@@H](C)c1cc(-c3c(C)cc(C)cc3C)no1)C2` 0.187

Thanks! And `CCCCCCc1nc(CCCc2cc3c(c(CCCCCC)n2)[Si](C(C)C)(C(C)C)O[C@H]3c2ccccc2)cc2c1[Si](C(C)C)(C(C)C)O[C@H]2c1ccccc1` ? -1.58

Let us now turn to Cc1cc2c(nc1C)CCCN2CC(C)ON=C1[C@H]2CCn3c(=O)n(-c4ccccc4)c(=O)n3[C@H]2[C@H](O)[C@@H]2O[C@H]12 (stereo partly drawn) -1.46

Now the compound COC(=O)[C@H](C)NC(=O)CCC1CC(OC(=O)NCc2ccc3c(c2)OCO3)CC2(CCCC(COC(=O)NCCOc3ccccc3)O2)O1 (stereo partly drawn) -0.638

* * *

Kindly supply the reported composite z-score values for the records listed here.
Experiment: binders from COS7 lysate, DM2A8 probe, primary screen, torsin A project, cell lysate, small-molecule microarray, fluorescence 635/667 (AID 1065)
Settings: higher = more signal, COS7 lysate expressing mutant human TOR1A
Could you respond with only the numeric value?

Record request: composite z-score value, item `CCCCCCc1nc(CCCc2cc3c(c(CCCCCC)n2)[Si](C(C)C)(C(C)C)O[C@H]3c2ccccc2)cc2c1[Si](C(C)C)(C(C)C)O[C@H]2c1ccccc1` -0.244

Same read-out for CCOC(=O)[C@H](Cc1ccccc1)NC(=O)CCC1CC(OC(=O)NCCc2ccc(F)cc2)CC2(CCCC(COC(=O)NCC(c3ccccc3)c3ccccc3)O2)O1 (stereo not given in full) ? 0.0877

Same thing, different molecule: `Cc1cc(C)c(-c2cc([C@H](C)ON=C3[C@H]4CCn5c(=O)n(-c6ccccc6)c(=O)n5[C@H]4[C@H](O)[C@@H]4O[C@H]34)on2)c(C)c1` 1.55

Try this molecule next: `COC(=O)[C@@]1(Cc2ccccc2)[C@H]2c3cc(C(=O)N4CCCC4)n(Cc4ccccn4)c3C[C@H]2CN1C(=O)c1ccccc1` 0.415

Same for CCOc1ccc(N2C(=O)/C(=C/C=C/c3ccccc3OC)S(=O)(=O)C2c2cccc([N+](=O)[O-])c2)cc1 (stereo not given) 0.232

Queued: `O=C1C[C@@H](O)[C@@H](O)[C@@H]2[C@@H]3C(=O)N(C4CCCCC4)C(=O)[C@@H]3CC[C@H]12` 0.176

Same for `[N-]=[N+]=NCc1ccccc1[C@@H]1OC(c2ccc(OCCCO)cc2)=N[C@]1(Cc1ccccc1)C(=O)N1CCOCC1` 1.51

Note, next up: `C/C=C\[C@@H](NCc1ccccc1Br)[C@@H](O)Cc1ccccc1` -0.441

Please give the result for `CC(CCC(=O)OC[C@H]1O[C@H](C#Cc2ccccc2)C=C[C@@H]1Oc1ccc(C)cc1)=NOC[C@@H](O)COCc1ccco1` too. -2.21

And for CCOC(=O)[C@H](Cc1ccccc1)NC(=O)CCC1CC(OC(=O)NCc2ccc3c(c2)OCO3)CC2(CCCC(COC(=O)NCC(c3ccccc3)c3ccccc3)O2)O1 (stereo not given in full) ? 0.805

Now the molecule `COc1ccc([Si](C)(C)[C@H]2[C@H](CC(=O)N3CCC[C@H]3CO)O[C@@]3(C(=O)N(Cc4cccc(N5C(=O)COc6ccccc65)c4)c4ccccc43)[C@@H]2C)cc1` 0.149

Next entry: `Cc1ccc(S[C@]2(C(=O)NCC(F)(F)F)CC(=O)N(Cc3ccccc3Cl)[C@@H]2c2ccc(CO)cc2I)cc1` -0.193

Input CC(CCN1CCCCc2nc(C)c(C)cc21)=NOC(C)CN1CCCc2nc(C)c(C)cc21 (stereo not given) 0.471

# iterate: `CCN1C(=O)[C@H]2[C@H]3[C@H](O)[C@H](O)CC(=NOCc4ccccc4)[C@H]3CC[C@H]2C1=O` 0.391

Request: `CCc1cc2c(nc1CC)CCN(CCC(C)=NOC[C@@H](O)COCc1ccco1)C2` 2.81

* * *

Biological target: Albumin (Bos taurus)
Test: bovine serum albumin binders on microarray, profiling panel, artefact control for SMM control protein annotation, biochemical, small-molecule microarray, Alexa647 label, 635/667 nm fluorescence (AID 1118);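 also: score merges 667 nm emission intensity and signal-to-noise per printed compound spot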
Details: BSA-A647 binding, fluorescence 635 nm, higher = more signal
Could you please report measured composite z-score for the items listed next?
No unit in the answer, only the number.

Reported composite z-score for `COc1ccc([Si](C)(C)[C@H]2[C@H](CCO)O[C@@]3(C(=O)N(Cc4cccc(NC(=O)[C@H](C)O)c4)c4ccccc43)[C@@H]2C)cc1` : what is it? 0.564

How about this molecule: O[C@@H](Cc1ccccc1)[C@H]1C2C=CCCC(c3ccccc3)=C2CN1Cc1cccc(Cl)c1 (stereo partly specified) -0.158

Param item: `CCCNC(=O)[C@@H]1c2ccccc2C(=O)N(c2ccc(C)cn2)[C@H]1c1ccc(CO)cc1` 0.206

Another molecule to check: `COCCCNC(=O)[C@@]1(C)c2ccccc2C(=O)N(Cc2ccc(OC(F)(F)F)cc2)[C@H]1c1ccc(CO)cc1` -0.881

Next: `CO[C@@H]1COC(=O)[C@H](C)NC(=O)[C@@H](C)COC(=O)CCC[C@H]1C` -0.163

And what about the molecule COC(=O)C1(C)C=C2C(=C(c3ccccc3)C(=O)C2C)CN1 (stereo unspecified) ? 0.226

And `NCCCCCNC(=O)[C@@H]1C[C@@H]2C(=O)N3CCC[C@H]3C(=O)N2[C@@H]1c1cccc(OCCO)c1` ? 0.533

CCCCCN1CC=CC23O[C@@H]4C=CCOC(=O)[C@@H]4[C@H]2C(=O)N(CCCCCCO)[C@@H]3C1=O (stereo partly specified) ? 0.798

Also need `COC(=O)[C@@H]1N=C(c2ccc(OCCCO)cc2)O[C@@H]1c1ccccc1N=[N+]=[N-]` , thanks. 0.731

Query `C[C@@H]1C=CCC(=O)OC[C@H](C)C(=O)N[C@@H](C)C(=O)OC1` next -0.171

Lookup COC(=O)CC1OC1[C@H](C)[C@@H](OC)C(C)C (stereo partly specified) -0.294

How about this molecule: `Cc1ccc(F)cc1S(=O)(=O)N[C@@H]1CCN(Cc2ccc(CC(C)C)cc2)C1` 0.118

Same read-out for `COc1ccccc1CN1C(=O)c2ccccc2[C@@]2(Cc3ccccc3N(C(C)C)C2=O)[C@@H]1c1ccc(CO)cc1` ? 0.282

Then what about the molecule `O=C1O[C@@H](c2ccccc2)[C@@H](c2ccccc2)N2[C@@H](c3ccc(OCCO)cc3)[C@]3(C(=O)Nc4ccc(C#CCCO)cc43)[C@@H](C(=O)N3CCCCCCC3)[C@H]12` ? 0.259

Same question, `C=CCOC(=O)[C@H]1[C@@H]2C(=O)O[C@@H](c3ccccc3)[C@@H](c3ccccc3)N2[C@@H](c2ccc(OCCOC(=O)[C@H]3C[C@H]4C(=O)N[C@@H](Cc5ccccc5)C(=O)N4[C@H]3c3ccc(O)cc3)cc2)[C@]12C(=O)Nc1ccccc12` this time -0.757

Thanks! And `COc1ccc(O[C@H]2C=C[C@@H](c3ccccc3)O[C@@H]2COC(=O)CCC(C)=NOC[C@@H](C)[C@H](OCc2ccccc2)C(C)C)cc1` ? -0.874
